All values here come from ChEMBL document CHEMBL4418299.

Biological target: Macrophage colony-stimulating factor 1 receptor (Homo sapiens, UniProt P07333)
Sequence (P07333 whole entry, the tested form may be a part): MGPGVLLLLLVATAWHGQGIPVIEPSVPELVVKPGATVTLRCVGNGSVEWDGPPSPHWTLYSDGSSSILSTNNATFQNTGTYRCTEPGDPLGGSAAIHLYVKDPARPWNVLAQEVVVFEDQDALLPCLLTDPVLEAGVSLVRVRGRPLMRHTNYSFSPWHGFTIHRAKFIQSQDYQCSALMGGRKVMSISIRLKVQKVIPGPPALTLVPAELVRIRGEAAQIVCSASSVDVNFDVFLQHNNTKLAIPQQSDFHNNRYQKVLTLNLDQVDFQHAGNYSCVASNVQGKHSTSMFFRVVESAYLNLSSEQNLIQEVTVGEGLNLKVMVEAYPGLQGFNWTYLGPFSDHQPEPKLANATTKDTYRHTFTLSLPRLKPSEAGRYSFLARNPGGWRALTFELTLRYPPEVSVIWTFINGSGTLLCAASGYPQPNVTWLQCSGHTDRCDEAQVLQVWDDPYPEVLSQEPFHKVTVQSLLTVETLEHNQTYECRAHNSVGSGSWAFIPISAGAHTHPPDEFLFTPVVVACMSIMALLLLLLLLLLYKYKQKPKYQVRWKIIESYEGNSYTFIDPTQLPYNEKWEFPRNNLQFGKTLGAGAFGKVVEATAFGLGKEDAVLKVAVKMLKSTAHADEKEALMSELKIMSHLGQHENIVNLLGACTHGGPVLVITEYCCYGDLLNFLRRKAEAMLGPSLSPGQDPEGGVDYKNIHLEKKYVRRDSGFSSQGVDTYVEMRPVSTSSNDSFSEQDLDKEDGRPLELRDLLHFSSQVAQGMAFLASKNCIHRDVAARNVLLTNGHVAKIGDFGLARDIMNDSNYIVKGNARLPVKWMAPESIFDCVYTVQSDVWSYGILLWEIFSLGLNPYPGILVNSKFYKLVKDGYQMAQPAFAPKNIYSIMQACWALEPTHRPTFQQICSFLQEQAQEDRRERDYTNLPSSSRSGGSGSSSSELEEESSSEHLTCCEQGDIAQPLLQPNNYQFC
Test: Displacement of kinase tracer 236 from recombinant human His-tagged CSF1R cytoplasmic domain (538 to 910 residues) expressed in baculovirus-infected insect cells measured after 5 hrs by TR-FRET based LanthaScreen assay
Could you please report measured IC50 for the items listed next?

{"smiles_data": "COc1cc(-n2c3c(c4ncnc(N)c42)CCC3)ccc1NC(=O)Cc1cc(C(F)(F)F)cnn1", "measured_target": "Macrophage colony-stimulating factor 1 receptor (Homo sapiens, UniProt P07333)", "IC50": "10 to 200 nM"}
{"smiles_data": "Nc1ncnc2c3c(n(-c4ccc(NC(=O)Cc5coc(-c6ccccc6)n5)cc4)c12)CCC3", "measured_target": "Macrophage colony-stimulating factor 1 receptor (Homo sapiens, UniProt P07333)", "IC50": "10 to 200 nM"}
{"smiles_data": "Nc1ncnc2c3c(n(-c4ccc(NC(=O)Cc5ccc(Cl)c(Cl)c5)cc4)c12)CCC3", "measured_target": "Macrophage colony-stimulating factor 1 receptor (Homo sapiens, UniProt P07333)", "IC50": "< 10 nM"}
{"smiles_data": "COc1cc(-n2c3c(c4ncnc(N)c42)CCC3)ccc1NC(=O)Cn1ccc(C(C)(C)C)n1", "measured_target": "Macrophage colony-stimulating factor 1 receptor (Homo sapiens, UniProt P07333)", "IC50": "< 10 nM"}
{"smiles_data": "COc1ccc(CC(=O)Nc2ccc(-n3c4c(c5ncnc(N)c53)COC4)cc2)cc1C(F)(F)F", "measured_target": "Macrophage colony-stimulating factor 1 receptor (Homo sapiens, UniProt P07333)", "IC50": "< 10 nM"}

Hey, quick one: what's IC50 for each of these?
1. COc1cc(-n2c3c(c4ncnc(N)c42)COC3)ccc1NC(=O)Cn1cc(C(C)(C)C)cn1
2. Cc1cc(CC(=O)Nc2ccc(-n3c4c(c5ncnc(N)c53)CCC4)cc2)on1
3. Nc1ncnc2c3c(n(-c4ccc(NC(=O)Cc5cc(C(F)F)on5)cc4)c12)CCC3
4. COc1cc(-n2c3c(c4ncnc(N)c42)CCC3)ccc1NC(=O)Cc1coc(-c2ccccc2)n1
5. Nc1ncnc2c3c(n(-c4ccc(NC(=O)Cc5ccccc5)nc4)c12)CCC3
6. COc1cc(-n2c3c(c4ncnc(N)c42)COC3)ccc1NC(=O)Cn1cnc(C(F)(F)F)c1
7. CN1CCN(CC(=O)Nc2ccc(-n3c4c(c5ncnc(N)c53)CCC4)cc2)CC1

1: 10 to 200 nM; 2: 10 to 200 nM; 3: 10 to 200 nM; 4: 10 to 200 nM; 5: > 200 nM; 6: 10 to 200 nM; 7: > 200 nM

Hey, quick one: what's IC50 for each of these?
1. COc1cc(-n2c3c(c4ncnc(N)c42)COC3)ccc1NC(=O)Cc1ccc(OC)c(C(F)(F)F)c1
2. COc1ccc(CC(=O)Nc2ccc(-n3c4c(c5ncnc(N)c53)CCC4)cc2)cc1C(F)(F)F
3. COc1ccc(CC(=O)Nc2ccc(-n3c4c(c5ncnc(N)c53)CCC4)cc2OC)cc1F
4. COc1ccc(CC(=O)Nc2ccc(-n3c4c(c5ncnc(N)c53)CCC4)cc2OC)c(F)c1
5. CC(C)c1noc(CC(=O)Nc2ccc(-n3c4c(c5ncnc(N)c53)CCC4)cc2)n1
6. COc1cc(-n2c3c(c4ncnc(N)c42)CCC3)ccc1NC(=O)Cc1ccc(C(C)(C)C)cc1

1. < 10 nM
2. < 10 nM
3. < 10 nM
4. < 10 nM
5. 10 to 200 nM
6. 10 to 200 nM

Hey, quick one: what's IC50 for each of these?
1. COc1cc(-n2c3c(c4ncnc(N)c42)COC3)ccc1NC(=O)Cc1csc(C(C)C)n1
2. COc1cc(CC(=O)Nc2ccc(-n3c4c(c5ncnc(N)c53)CCC4)cc2)ccc1F
3. COc1cc(-n2c3c(c4ncnc(N)c42)CCC3)ccc1NC(=O)CN1CCOc2ccccc21
4. COc1ccc(CC(=O)Nc2ccc(-n3c4c(c5ncnc(N)c53)COC4)cc2)cc1C
5. COc1cc(-n2c3c(c4ncnc(N)c42)CCC3)ccc1CC(=O)Nc1ccc(C(F)(F)F)cn1
6. COc1cc(-n2c3c(c4ncnc(N)c42)CCC3)ccc1NC(=O)CN1CCCc2cc(F)ccc21
7. Nc1ncnc2c3c(n(-c4ccc(NC(=O)Cc5ccc(C(F)(F)F)nc5)cc4)c12)COC3

["10 to 200 nM", "10 to 200 nM", "10 to 200 nM", "< 10 nM", "< 10 nM", "10 to 200 nM", "10 to 200 nM"]

---

Target: Vascular endothelial growth factor receptor 2 (Homo sapiens)
Sequence (P35968 whole entry, the tested form may be a part): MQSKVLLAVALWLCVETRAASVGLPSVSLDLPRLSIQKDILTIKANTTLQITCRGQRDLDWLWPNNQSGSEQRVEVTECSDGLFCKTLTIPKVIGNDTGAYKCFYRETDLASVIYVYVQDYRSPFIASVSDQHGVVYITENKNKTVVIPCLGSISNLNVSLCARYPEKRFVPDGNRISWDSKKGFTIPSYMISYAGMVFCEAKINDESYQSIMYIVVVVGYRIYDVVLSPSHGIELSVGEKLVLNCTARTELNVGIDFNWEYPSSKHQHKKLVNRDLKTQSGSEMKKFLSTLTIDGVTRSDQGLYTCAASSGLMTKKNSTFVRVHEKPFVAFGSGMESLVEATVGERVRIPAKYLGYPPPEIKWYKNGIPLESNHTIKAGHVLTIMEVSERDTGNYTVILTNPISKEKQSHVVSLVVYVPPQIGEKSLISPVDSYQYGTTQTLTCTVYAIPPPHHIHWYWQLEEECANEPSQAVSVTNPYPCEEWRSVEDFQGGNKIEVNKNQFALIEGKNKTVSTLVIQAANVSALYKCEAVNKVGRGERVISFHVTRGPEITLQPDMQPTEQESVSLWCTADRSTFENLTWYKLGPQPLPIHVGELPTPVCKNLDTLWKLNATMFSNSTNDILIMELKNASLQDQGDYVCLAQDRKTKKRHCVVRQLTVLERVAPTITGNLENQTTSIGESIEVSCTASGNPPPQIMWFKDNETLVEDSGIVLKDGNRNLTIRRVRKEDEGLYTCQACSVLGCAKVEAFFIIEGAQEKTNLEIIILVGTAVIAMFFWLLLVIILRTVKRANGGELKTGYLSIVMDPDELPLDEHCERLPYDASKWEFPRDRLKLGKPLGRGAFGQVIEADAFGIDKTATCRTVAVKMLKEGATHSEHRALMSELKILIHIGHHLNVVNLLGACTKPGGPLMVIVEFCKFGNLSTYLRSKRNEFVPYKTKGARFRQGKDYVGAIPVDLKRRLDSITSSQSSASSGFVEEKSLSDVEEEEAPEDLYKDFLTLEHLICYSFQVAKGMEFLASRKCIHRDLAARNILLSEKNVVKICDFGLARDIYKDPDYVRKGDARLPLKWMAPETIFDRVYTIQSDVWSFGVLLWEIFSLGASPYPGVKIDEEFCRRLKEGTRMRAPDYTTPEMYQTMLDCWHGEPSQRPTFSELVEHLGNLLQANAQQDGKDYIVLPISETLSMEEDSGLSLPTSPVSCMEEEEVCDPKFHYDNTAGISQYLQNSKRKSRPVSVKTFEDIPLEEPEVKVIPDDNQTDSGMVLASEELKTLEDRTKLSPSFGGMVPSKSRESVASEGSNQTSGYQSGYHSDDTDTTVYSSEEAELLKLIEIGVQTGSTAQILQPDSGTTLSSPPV
Test: Displacement of kinase tracer 236 from recombinant human His-tagged KDR cytoplasmic domain (789 to 1356 residues) expressed in baculovirus-infected insect cells measured after 5 hrs by TR-FRET based LanthaScreen assay
pIC50: −log10 of the molar value.
readout_type: pIC50

{"smiles_data": "Nc1ncnc2c3c(n(-c4ccc(NC(=O)Cc5cc(C(F)(F)F)ccn5)cc4)c12)CCC3", "result": "< 6.70"}
{"smiles_data": "COc1ccc(CC(=O)Nc2ccc(-n3c4c(c5ncnc(N)c53)CCC4)cc2)c(F)c1", "result": "< 6.70"}
{"smiles_data": "COc1ccc(CC(=O)Nc2ccc(-n3c4c(c5ncnc(N)c53)CCC4)cc2OC)c(F)c1", "result": "< 6.70"}
{"smiles_data": "Nc1ncnc2c3c(n(-c4ccc(NC(=O)Cc5cccc(OC(F)F)c5)cc4)c12)CCC3", "result": "< 6.70"}

Hey, quick one: what's pIC50 for each of these?
1. COc1cc(F)c(CC(=O)Nc2ccc(-n3c4c(c5ncnc(N)c53)CCC4)cc2)c(F)c1
2. Nc1ncnc2c3c(n(-c4ccc(NC(=O)Cc5ccc(Cl)c(Cl)c5)cc4)c12)CCC3
3. COc1cc(-n2c3c(c4ncnc(N)c42)CCC3)ccc1CC(=O)Nc1ccnc(C(F)(F)F)c1
4. Nc1ncnc2c3c(n(-c4ccc(CC(=O)Nc5ccnc(C(F)(F)F)c5)cc4)c12)CCC3
5. Nc1ncnc2c3c(n(-c4ccc(CC(=O)N5CCOc6ccccc65)cc4)c12)CCC3

1. 6.70 to 8.00
2. < 6.70
3. < 6.70
4. 6.70 to 8.00
5. < 6.70

---

Biological target: Macrophage colony-stimulating factor 1 receptor (Homo sapiens, UniProt P07333)
Assay: Displacement of kinase tracer 236 from recombinant human His-tagged CSF1R cytoplasmic domain (538 to 910 residues) expressed in baculovirus-infected insect cells measured after 5 hrs by TR-FRET based LanthaScreen assay
readout_type: IC50

Hey, quick one: what's IC50 for each of these?
1. Cn1ccc2cc(NC(=O)Cc3ccc(-n4c5c(c6ncnc(N)c64)CCC5)cc3)ccc21
2. Cc1ccc(CC(=O)Nc2ccc(-n3c4c(c5ncnc(N)c53)COC4)cc2)cc1F
3. COc1cc(-n2c3c(c4ncnc(N)c42)CCC3)ccc1NC(=O)Cc1cc(C(F)(F)F)on1
4. COc1ccc(CC(=O)Nc2ccc(-n3c4c(c5ncnc(N)c53)CCC4)cc2)cc1C
5. COc1cc(-n2c3c(c4ncnc(N)c42)CCC3)ccc1CC(=O)Nc1cnc(OC)c(F)c1
6. Nc1ncnc2c3c(n(-c4ccc(NC(=O)Cc5c(F)cc(Cl)cc5F)cc4)c12)CCC3
7. Cc1ccc(F)c(CC(=O)Nc2ccc(-n3c4c(c5ncnc(N)c53)COC4)cc2F)c1

["< 10 nM", "10 to 200 nM", "< 10 nM", "< 10 nM", "< 10 nM", "10 to 200 nM", "> 200 nM"]

Hey, quick one: what's IC50 for each of these?
1. COc1cc(-n2c3c(c4ncnc(N)c42)CCC3)ccc1CC(=O)Nc1cnn(C(F)F)c1
2. COc1cc(-n2c3c(c4ncnc(N)c42)CCC3)ccc1NC(=O)Cc1cnn(C)c1C(F)(F)F

["10 to 200 nM", "< 10 nM"]

---

Target: Macrophage colony-stimulating factor 1 receptor (Homo sapiens, UniProt P07333)
Experiment: Displacement of kinase tracer 236 from recombinant human His-tagged CSF1R cytoplasmic domain (538 to 910 residues) expressed in baculovirus-infected insect cells measured after 5 hrs by TR-FRET based LanthaScreen assay
Could you please report measured IC50 for the items listed next?

{"smiles_data": "NC(=O)c1ccc(CC(=O)Nc2ccc(-n3c4c(c5ncnc(N)c53)CCC4)cc2)cc1C(F)(F)F", "IC50": "10 to 200 nM"}
{"smiles_data": "Nc1ncnc2c3c(n(-c4ccc(NC(=O)Cc5ccn(C(F)F)n5)cc4)c12)COC3", "IC50": "> 200 nM"}
{"smiles_data": "Nc1ncnc2c3c(n(-c4ccc(CC(=O)NC5CCOCC5)cc4)c12)CCC3", "IC50": "> 200 nM"}
{"smiles_data": "COc1cc(-n2c3c(c4ncnc(N)c42)CCC3)ccc1NC(=O)Cc1ccc2c(c1)CCN2CC(F)(F)F", "IC50": "< 10 nM"}
{"smiles_data": "N#Cc1ccc(CC(=O)Nc2ccc(-n3c4c(c5ncnc(N)c53)CCC4)cc2)cc1", "IC50": "< 10 nM"}
{"smiles_data": "Nc1ncnc2c3c(n(-c4ccc(CC(=O)Nc5ccc(Cl)c(C(F)(F)F)c5)cc4)c12)CCC3", "IC50": "9 nM"}
{"smiles_data": "Cn1nc(C(F)(F)F)cc1CC(=O)Nc1ccc(-n2c3c(c4ncnc(N)c42)CCC3)cc1", "IC50": "< 10 nM"}
{"smiles_data": "CNC(=O)c1cccc(NC(=O)Cc2ccc(-n3c4c(c5ncnc(N)c53)CCC4)cc2OC)c1", "IC50": "10 to 200 nM"}

Hey, quick one: what's IC50 for each of these?
1. COc1cc(-n2c3c(c4ncnc(N)c42)CCC3)ccc1NC(=O)Cc1cnc2c(ccn2C)c1
2. COc1ccc(NC(=O)Cc2ccc(-n3c4c(c5ncnc(N)c53)CCC4)cc2)cc1C(F)(F)F
3. COc1cc(-n2c3c(c4ncnc(N)c42)CCC3)ccc1CC(=O)Nc1ccc(C(C)(C)O)nc1
4. COc1cc(-n2c3c(c4ncnc(N)c42)CCC3)ccc1NC(=O)Cc1ccnc(C(F)(F)F)c1
5. COc1cc(CC(=O)Nc2ccc(-n3c4c(c5ncnc(N)c53)CCC4)cc2OC)cc(OC)c1
6. COc1cc(-n2c3c(c4ncnc(N)c42)COC3)ccc1NC(=O)Cc1cc(C(F)(F)F)ccc1F
7. COc1cc(-n2c3c(c4ncnc(N)c42)COC3)ccc1NC(=O)Cc1nccc(C(F)(F)F)n1
8. COc1cc(-n2c3c(c4ncnc(N)c42)CCC3)ccc1NC(=O)Cc1nc(C(C)C)no1

["< 10 nM", "< 10 nM", "< 10 nM", "< 10 nM", "< 10 nM", "10 to 200 nM", "> 200 nM", "< 10 nM"]

Hey, quick one: what's IC50 for each of these?
1. COc1cc(-n2c3c(c4ncnc(N)c42)CCC3)ccc1NC(=O)Cc1csc(C(C)C)n1
2. COc1cccc(CC(=O)Nc2ccc(-n3c4c(c5ncnc(N)c53)CCC4)cc2OC)n1

1. < 10 nM
2. 10 to 200 nM
